Provide the recorded pIC50 for the entries that follow.
Target: MPXV VP39 2′-O-RNA methyltransferase (Monkeypox virus)
Sequence (A0A7H0DN74 whole entry, looked up): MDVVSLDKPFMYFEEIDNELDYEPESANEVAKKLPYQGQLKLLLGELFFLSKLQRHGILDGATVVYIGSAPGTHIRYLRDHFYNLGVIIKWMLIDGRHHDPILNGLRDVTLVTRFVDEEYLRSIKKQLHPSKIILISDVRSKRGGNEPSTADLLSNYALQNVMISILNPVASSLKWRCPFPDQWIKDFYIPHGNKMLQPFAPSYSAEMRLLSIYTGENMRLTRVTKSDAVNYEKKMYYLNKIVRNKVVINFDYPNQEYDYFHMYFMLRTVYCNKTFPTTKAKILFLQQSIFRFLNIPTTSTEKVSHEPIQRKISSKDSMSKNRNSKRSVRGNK
Test: biochemical
Settings: IC50
Would you please state pIC50, meaning minus log10 of the concentration in mol/L, as a bare number?

// field: pIC50; key: Nc1ncnc2c1ncn2[C@@H]1O[C@H](C[C@@H](N)CC[C@H](N)C(=O)O)[C@@H](O)[C@H]1O [sinefungin, reference compound] ; value = 5.64

// field: pIC50; key: `Nc1ncnc2c1c(I)cn2[C@@H]1O[C@H](CSCC[C@H](N)C(=O)O)[C@@H](O)[C@H]1O` ; value = 6.89
